Reported pKd values for the following binders.
# MEASURED_ON: human Jag1-DSL-EGF1-4 (UniProt P78504 34-377)
# MEASUREMENT_NOTES: Biacore (SPR)
Just so you know, pKd here is -log10 of the concentration in molar units; reply with that number alone.

A-2 (antibody, V domains shown) VH: EVQLVESGGGLVQPGGSLRLSCAASGFTFSNYGIHWVRQAPGKGLEWVGWITGNGGYSDYADSVKGRFTISADTSKNTAYLQMNSLRAEDTAVYYCARAGSWFAYWGQGTLVTVSS VL: DIQMTQSPSSLSASVGDRVTITCRASQDVSTAVAWYQQKPGKAPKLLIYSASFLYSGVPSRFSGSGSGTDFTLTISSLQPEDFATYYCQQSYTTPPTFGQGTKVEIK : 9.52

Reported pKd for A (antibody, V domains shown) VH: EVQLVESGGGLVQPGGSLRLSCAASGFTFSNYGIHWVRQAPGKGLEWVGWITPDGGYTDYADSVKGRFTISADTSKNTAYLQMNSLRAEDTAVYYCARAGSWFAYWGQGTLVTVSS VL: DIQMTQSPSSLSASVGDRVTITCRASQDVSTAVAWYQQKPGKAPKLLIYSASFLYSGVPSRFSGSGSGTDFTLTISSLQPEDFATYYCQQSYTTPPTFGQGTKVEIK : what is it?
7.03

Reported pKd for D (antibody, V domains shown) VH: EVQLVESGGGLVQPGGSLRLSCAASGFTFTSNYMSWVRQAPGKGLEWVSTIWYQSGTTDYADSVKGRFTISADTSKNTAYLQMNSLRAEDTAVYYCARSSPWSGEGFGMDVWGQGTLVTVSS VL: DIQMTQSPSSLSASVGDRVTITCRASQSISSYLAWYQQKPGKAPKLLIYGASSRASGVPSRFSGSGSGTDFTLTISSLQPEDFATYYCQQYYSSPLTFGQGTKVEIK : what is it?
7.89
